Recorded Conversion to Dicamba, Light, Day 28, one value per entry.
# EXPERIMENT: In vitro photo-release and hydrolytic release of dicamba in an aqueous medium (Example 36)
# Assay type: physicochemical
# EXPERIMENTAL CONTEXT: 0.01 mM (0.005 mM for diesters), quartz tube, Day 28
Give your result as the value with the unit written after it.

These solved cases illustrate the format of a correct answer.
COMPOUND: C=C(C(=O)OCC)C(OC(=O)c1c(Cl)ccc(Cl)c1OC)c1ccccc1[N+](=O)[O-] (centres unmarked) [Ester 31a]
RESULT: 53%
--
COMPOUND: COc1c(Cl)ccc(Cl)c1C(=O)Oc1ccc(=O)n(CCC#N)n1 [Ester 34a]
RESULT: 71%
--
COMPOUND: COc1c(Cl)ccc(Cl)c1C(=O)Oc1ccccn1 [Ester 14, 2-Hydroxypyridine Ester of Dicamba]
RESULT: 75%
--
COMPOUND: COc1c(Cl)ccc(Cl)c1C(=O)Oc1ccc(=O)n(CCC=O)n1 [Ester 33a]
RESULT: 57%

Shifting focus to the compound that follows.
Give the reported value of Conversion to Dicamba, Light, Day 28 for this record: CCOC(=O)CCn1nc(OC(=O)c2c(Cl)ccc(Cl)c2OC)ccc1=O [Ester 35a]
65%

----------
# EXPERIMENT: In vitro photo-release and hydrolytic release of dicamba in an aqueous medium (Example 36)
# Assay type: physicochemical
# EXPERIMENTAL CONTEXT: 0.01 mM (0.005 mM for diesters), amber (dark) bottle, Day 4
READOUT NAME: Conversion to Dicamba, Dark, Day 4 (%)
Dear colleague, please return just the value in %, with no unit written.

COMPOUND: COc1c(Cl)ccc(Cl)c1C(=O)Oc1ccc(=O)n(CCC#N)n1 [Ester 34a]
UNIT SYMBOL: %
Conversion to Dicamba, Dark, Day 4: 23
--
COMPOUND: COc1c(Cl)ccc(Cl)c1C(=O)Oc1nc(C(C)(C)C)cc(C(C)(C)C)c1C#N [Ester 36a]
UNIT SYMBOL: %
Conversion to Dicamba, Dark, Day 4: 60
--
COMPOUND: COc1c(Cl)ccc(Cl)c1C(=O)Oc1ccc(=O)n(CCC=O)n1 [Ester 33a]
UNIT SYMBOL: %
Conversion to Dicamba, Dark, Day 4: 22

Turning now to a further compound:
Query Conversion to Dicamba, Dark, Day 4 for COc1c(Cl)ccc(Cl)c1C(=O)Oc1ccccn1 [Ester 14, 2-Hydroxypyridine Ester of Dicamba]
86

----------
Recorded Conversion to Dicamba, Dark, Day 0 for the following molecules
# EXPERIMENT: In vitro photo-release and hydrolytic release of dicamba in an aqueous medium (Example 35)
# Format: physicochemical
# EXPERIMENTAL CONTEXT: 0.01 mM ester, amber (dark) bottle, 35° C., Day 0
Respond with a number, then the unit of measure.

In one line, give reported Conversion to Dicamba, Dark, Day 0 of the entry COc1c(Cl)ccc(Cl)c1C(=O)OCCc1ccccc1[N+](=O)[O-] [Ester 2, 2-Nitrophenethyl Ester of Dicamba] .
3%

Consider the molecule COc1ccc(OC(=O)c2c(Cl)ccc(Cl)c2OC)cc1 [Ester 30a, 4-methoxyphenyl ester of dicamba] and give its recorded Conversion to Dicamba, Dark, Day 0.
6%

Identify Conversion to Dicamba, Dark, Day 0 associated with the molecule COc1c(Cl)ccc(Cl)c1C(=O)Oc1cnc2ccccc2n1 [Ester 13a, 2-quinoxalinol ester of dicamba]
8%

Return Conversion to Dicamba, Dark, Day 0 for the following molecule: COc1c(Cl)ccc(Cl)c1C(=O)Oc1ccc(=O)n(CCC(C)=O)n1 [Ester 32a]
5%

Answer with the recorded Conversion to Dicamba, Dark, Day 0 for the molecule listed here: COc1c(Cl)ccc(Cl)c1C(=O)OCc1ccccc1[N+](=O)[O-] [Ester 1a, 2-Nitrobenzyl Ester of Dicamba]
7%
